Molecular target: T1, full-length untagged human GPNMB expressed on cells (human, UniProt Q14956 23-572)
T1 sequence: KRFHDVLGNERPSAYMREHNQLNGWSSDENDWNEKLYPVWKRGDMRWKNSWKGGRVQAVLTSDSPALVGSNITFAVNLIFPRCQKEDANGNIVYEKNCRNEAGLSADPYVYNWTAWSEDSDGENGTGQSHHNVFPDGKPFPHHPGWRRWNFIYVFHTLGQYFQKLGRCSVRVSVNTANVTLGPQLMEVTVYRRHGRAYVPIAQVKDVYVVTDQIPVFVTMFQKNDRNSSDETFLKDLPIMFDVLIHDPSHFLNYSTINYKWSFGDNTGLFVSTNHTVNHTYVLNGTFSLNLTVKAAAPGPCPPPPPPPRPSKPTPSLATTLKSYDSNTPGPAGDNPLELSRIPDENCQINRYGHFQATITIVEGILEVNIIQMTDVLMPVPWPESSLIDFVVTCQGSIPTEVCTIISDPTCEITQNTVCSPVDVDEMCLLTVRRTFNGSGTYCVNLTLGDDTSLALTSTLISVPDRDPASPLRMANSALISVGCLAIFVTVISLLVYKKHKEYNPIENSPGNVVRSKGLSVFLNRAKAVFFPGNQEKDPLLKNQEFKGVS
Assay: cell-based or functional assay
# CD80 (FoB) annotations
Quick note: give the figure in FoB, leave out the unit.

Briefly, CD80 (FoB) measured for anti-GPNMB antibody GPN-31 (antibody, human IgG1, V domains shown, chimeric) VH: EVQLQQSGPELVKPGASVKISCKASGYSFTGYYMNWVKQSPEKNLEWIGEINPNTGGTTYNQKFKAKATLTVDKSSTTAYMQLKSLTSEDSAVYYCTRPASWFDYWGQGTLVTVSA VL: DIQMTQSPSSLSASLGERVSLTCRASQEISGHLSWLQQKPDGTIKRLIYAASTLDSGVPKRFSGRRSGSDYSLTISSLESEDFADYYCLQYASYPYTFGGGTKLAIK : 1.44
